Molecular target: recombinant human FLAP protein (Homo sapiens, UniProt P20292)
Sequence (P20292 whole entry): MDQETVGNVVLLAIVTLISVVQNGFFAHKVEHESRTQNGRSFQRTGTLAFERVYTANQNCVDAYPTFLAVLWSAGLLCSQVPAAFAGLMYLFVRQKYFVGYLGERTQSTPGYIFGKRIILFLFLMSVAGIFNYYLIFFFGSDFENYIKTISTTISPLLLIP
Assay: FLAP binding assay (Scintillation Proximity Assay, displacement of [125I]L-691,831)
Settings: recombinant human FLAP membranes, [125I]L-691,831 probe; read-out: FLAP SPA IC50
Parameter: pIC50. Scope: all listed entries.
Keep in mind that pIC50 stands for -log10 of concentration in molar terms.

COMPOUND: Nc1ncc(-c2ccc(C3(c4noc(-c5ccc(C(=O)N6CCC(F)(F)CC6)nc5)n4)CCC3)cc2)cn1 [Example 59]
TARGET_UNDER_TEST: recombinant human FLAP protein (Homo sapiens, UniProt P20292)
pIC50: 8.29

COMPOUND: CC(C)(O)c1ccc(-c2nc(C3(c4ccc(-c5cnc(N)nc5)cc4)CCC3)no2)cn1 [Example 172]
TARGET_UNDER_TEST: recombinant human FLAP protein (Homo sapiens, UniProt P20292)
pIC50: 8.37

COMPOUND: CS(=O)(=O)CCn1cc(-c2nc(C3(c4ccc(-c5cnc(N)nc5)cc4)CCC3)no2)cn1 [Example 231]
TARGET_UNDER_TEST: recombinant human FLAP protein (Homo sapiens, UniProt P20292)
pIC50: 8.64

COMPOUND: CS(=O)(=O)C1CCN(c2ccc(-c3nc(C4(c5ccc(-c6cnc(N)nc6)cc5)CCC4)no3)cn2)C1 (stereo not shown) [Example 110]
TARGET_UNDER_TEST: recombinant human FLAP protein (Homo sapiens, UniProt P20292)
pIC50: 9.04

Req: Look up pIC50 for this compound: Cn1ccnc1-c1nc(C2(c3ccc(-c4cnc(N)nc4)cc3)CCC2)no1 [Example 245]
Resp: 7.42

Req: Look up pIC50 for this compound: CS(=O)(=O)CCNC(=O)Cn1cc(-c2nc(C3(c4ccc(-c5cnc(N)nc5)cc4)CCC3)no2)cn1 [Example 225]
Resp: 9.05

Req: Look up pIC50 for this compound: Nc1ncc(-c2ccc(C3(c4noc(C5CCCCN5)n4)CCC3)cc2)cn1 (stereo not shown) [Example 283]
Resp: 7.22

Req: Look up pIC50 for this compound: COCCNC(=O)c1ccc(-c2nc(C3(c4ccc(-c5cnc(N)nc5)cc4)CCC3)no2)cn1 [Example 76]
Resp: 8.41

Req: Look up pIC50 for this compound: Nc1ncc(-c2ccc(C3(c4noc(-c5ccc6nccn6c5)n4)CCC3)cc2)cn1 [Example 73]
Resp: 8.17

Req: Look up pIC50 for this compound: CN(CC1CCOCC1)c1nc(C2(c3ccc(-c4cnc(N)nc4)cc3)CCC2)no1 [Example 292]
Resp: 7.66

###

Parameter: pIC50. Scope: all listed entries.
Target: recombinant human FLAP protein (Homo sapiens, UniProt P20292)
Assay: FLAP binding assay (Scintillation Proximity Assay, displacement of [125I]L-691,831)
Details: recombinant human FLAP membranes, [125I]L-691,831 probe; read-out: FLAP SPA IC50
Keep in mind that pIC50 stands for -log10 of concentration in molar terms.

Req: Look up pIC50 for this molecule: CCNc1ccc(-c2nc(C3(c4ccc(-c5cnc(N)nc5)cc4)CCC3)no2)cn1 [Example 183]
Resp: 9.06

Req: Look up pIC50 for this molecule: Nc1ncc(-c2ccc(C3(c4noc(-c5cnn6cccnc56)n4)CCC3)cc2)cn1 [Example 72]
Resp: 8.72

Req: Look up pIC50 for this molecule: Nc1ncc(-c2ccc(C3(c4noc(N5CC[C@H](O)C5)n4)CCC3)cc2)cn1 [Example 287]
Resp: 7.44

Req: Look up pIC50 for this molecule: Nc1ncc(-c2ccc(C3(c4noc(-c5cccnn5)n4)CCC3)cc2)cn1 [Example 8]
Resp: 8.07

Req: Look up pIC50 for this molecule: CCN(C)C(=O)Cn1cc(-c2nc(C3(c4ccc(-c5cnc(N)nc5)cc4)CCC3)no2)cn1 [Example 138]
Resp: 8.55

Req: Look up pIC50 for this molecule: CC(C)(O)Cn1cc(-c2nc(C3(c4ccc(-c5cnc(N)nc5)cc4)CC3)no2)cn1 [Example 254]
Resp: 6.72

Req: Look up pIC50 for this molecule: Nc1ncc(-c2ccc(C3(c4noc(-c5cnc(N6CCC[C@@H]6CO)cn5)n4)CCC3)cc2)cn1 [Example 195]
Resp: 8.54

Req: Look up pIC50 for this molecule: Nc1ncc(-c2ccc(C3(c4noc(-c5cnn(CCN6CCOCC6)c5)n4)CCC3)cc2)cn1 [Example 232]
Resp: 8.74
